Test System: NCP-CoV (2019-nCoV) Spike Protein (S1 Subunit, His Tag) (SARS-CoV-2, UniProt P0DTC2 16-685)
Assay Overview: HT-SPR (Carterra LSA), mAb on chip, S1 subunit (His tag) in solution, 25 C
Reported Endpoint: Kd (nM)

INSERT INTO results (binder, reported_endpoint, quantitative_readout) VALUES
  ('antibody 481 (antibody, V domains shown) VH: EVQLVESGGGLIQPGGSLRLSCAASGFTVSSNYMSWVRQAPGKGLEWVSVIYSGGSTFYADSVKGRFTISRDNSKNTLYLQMNSLRAEDTAVYYCAREVAGTYDYWGQGTLVTVSS VL: DIQMTQSPSSVSASVGDRVTITCRASQGISSWLAWYQQKPGKAPKLLIYAASSLQSGVPSRFSGSGSGTDFTLTISSLQPEDFATYYCQQANSFPGGTFGPGTKVDIKR', 'Kd', 170),
  ('antibody 408 (antibody, V domains shown) VH: QVQLVESGGGVVQPGRSLRLSCAASGFTFSSYAMHWVRQAPGKGLEWVAVISYDGSNKYYADSVKGRFTISRDNSRNTLYLQMNSLRAEDTAVYYCAKGADTPHYSGYDFLSVGYYYYGMDVWGQGTTVTVSS VL: DIQMTQSPSSLSASVGDRVTITCRASQSISSYLNWYQQKPGKAPKLLIYAASSFQSGVPSRFSGSRSGTDFTLTISSLQPEDFATYYCQQSYSAPFTFGPGTKVDIKR', 'Kd', 171),
  ('antibody 506 (antibody, V domains shown) VH: QITLKESGPTLVKPTQTLTLTCTFSGFSLSTSGVGVGWIRQPPGKALEWLALIYWDDDKRYSPSLKSRLTITKDTSKNQVVLTMTNMDPVDTATYYCAHHSLSSIFDYWGQGTLVTVSS VL: QSALTQPASVSGSPGQSITISCTGTSSDVGDYNYVSWYQQHPGKAPKLMIYEVSNRPSGVSNRFSGSKSGNTASLTISGLQAEDEADYYCSSYTSSSTVFGGGTKLTVLG', 'Kd', 90.9),
  ('antibody 494 (antibody, V domains shown) VH: EVQLVESGGGLVQPGGSLRLSCAASGFTVSSNYMSWVRQAPGKGLEWVSVIYSGGSTFYADSVKGRFTISRDNSKNTLYLQMNSLRAEDTAVYYCARDSGDQLLDYWGQGTLVTVSS VL: DIQLTQSPSFLSASVGDRVTITCRASQGISSYLAWYQQKPGKAPKLLIYAASTLQSGVPSRFSGSGSGTEFTLTISSLQPEDFATYYCQQLNSYPPFTFGPGTKVDIKR', 'Kd', 189),
  ('antibody 292 (antibody, V domains shown) VH: EVQLVESGGGLIQPGGSLRLSCAASGFTVSSNYMSWVRQAPGKGLEWVSVIYSGGSTYYADSVKGRFTISRDNSKNTLYLQMNSLRAEDTAVYYCARDLQGGGGPWGQGTLVTVSS VL: AIQMTQSPSSLSASVGDRVTITCRASQGIRNDLGWYQQKPGKAPKLLIYAASSLQSGVPSRFSGSGSGTDFTLTISSLQPEDFATYYCLQDYNYPRTFGQGTKVEIKR', 'Kd', 118);
